Values were extracted from patent EP0630648A1.

Measured mean latency by item
- Tested on: male Wistar rats
- assay-remarks: Hot-plate test: onset of habituation to the analgesic action of morphine
- Type: in vivo
- reported-conditions: T 240; after 15 days of daily morphine; substance 100 mg/kg i.p.; morphine 10 mg/kg i.p.; plate 51°C
Marks after values point to notes of the source that are not given here.

# compound, mean latency
measured = [
    ("CC(=O)OC(CC(=O)[O-])C[N+](C)(C)C [LAC, acetyl L-carnitine]", "6.0 s"),
    ("CC(C)CC(=O)O[C@H](CC(=O)OCCCC(=O)[O-])C[N+](C)(C)C [VCGB]", "10.0* sec."),
    ("CC(C)CC(=O)O[C@H](CC(=O)[O-])C[N+](C)(C)C [VC, isovaleryl L-carnitine]", "6.0 s"),
    ("O=C(O)CCCO [GHB, gamma-hydroxybutyric acid]", "6.0 s"),
]

###

Measured number of heroin self-administrations by item
- System: male Wistar rats
- assay-remarks: Heroin self-administration behaviour in rats
- reported-conditions: 3rd day; in the space of 3 hours; 100 mg/kg daily intraperitoneal

# compound, number of heroin self-administrations
measured = [
    ("O=C(O)CCCO [GHB, gamma-hydroxybutyric acid]", 7.5),
    ("CC(C)CC(=O)O[C@H](CC(=O)OCCCC(=O)[O-])C[N+](C)(C)C", 6.3),
    ("CC(=O)OC(CC(=O)[O-])C[N+](C)(C)C (stereo not shown)", 7.0),
    ("CC(C)CC(=O)O[C@H](CC(=O)[O-])C[N+](C)(C)C", 7.2),
]
